Target: T1, Avi-UPF2-MIF4GIII (biotinylated) (UniProt Q9HAU5 761-1054, biotin on the Avi tag (BirA))
T1 sequence: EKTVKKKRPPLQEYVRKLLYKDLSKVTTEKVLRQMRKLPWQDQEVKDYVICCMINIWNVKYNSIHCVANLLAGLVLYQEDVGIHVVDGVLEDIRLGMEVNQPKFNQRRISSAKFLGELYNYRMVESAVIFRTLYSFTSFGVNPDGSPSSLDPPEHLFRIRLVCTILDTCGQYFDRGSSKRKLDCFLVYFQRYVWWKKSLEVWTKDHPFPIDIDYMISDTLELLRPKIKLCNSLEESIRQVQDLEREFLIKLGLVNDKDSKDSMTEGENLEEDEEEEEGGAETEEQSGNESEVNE
Assay: SPR
parameterMeasured: Kd (nM)
Field: numeric (nM). Do not append units.

Request: Recorded Kd for UPF3B-41-189 Y160D (domain or fragment) DRNKEKKEALSKVVIRRLPPTLTKEQLQEHLQPMPEHDYFEFFSNDTSLYPHMYARAYINFKNQEDIILFRDRFDGYVFLDNKGQEYPAIVEFAPFQKAAKKKTKKRDTKVGTIDDDPEDRKFLESYATDNEKMTSTPETLLEEIEAKN , please?
Result: 140
